assay: Cmax in Wistar rat at 10 mg/kg, po; assay type: ADME, organism-based; parameters: dose 10 mg/kg, route oral; conditions: in vivo
readout.name: Cmax

> print(dat)
                                   molecule  readout.name  endpoint.value
1  N=C(N)NCCCC1NC(=O)CCCCCC(=O)NC(Cc2ccccc2)CN(CC(N)=O)C1=O (stereo unspecified)          Cmax       866 ng/mL

---

experiment: Tmax in Wistar rat at 1 mg/kg, iv; format: ADME, organism-based; set-up: dose 1 mg/kg, route intravenous; conditions: in vivo
readout.name: Tmax

> print(dat)
                                   compound  endpoint.value
1  N=C(N)NCCCC1NC(=O)CCCCCC(=O)NC(Cc2ccccc2)CN(CC(N)=O)C1=O (stereo unspecified)           5 min

---

assay: Half life in Wistar rat at 10 mg/kg, po; type: ADME, organism-based; parameters: dose 10 mg/kg, route oral; settings: in vivo
readout.name: half-life (min)

> print(dat)
                                   compound  unit.abbrev  endpoint.value
1  N=C(N)NCCCC1NC(=O)CCCCCC(=O)NC(Cc2ccccc2)CN(CC(N)=O)C1=O (stereo unspecified)          min              73

---

assay: Tmax in Wistar rat at 10 mg/kg, po; assay type: ADME, organism-based; set-up: dose 10 mg/kg, route oral; details: in vivo
readout.name: Tmax

> print(dat)
                                   compound  endpoint.value
1  N=C(N)NCCCC1NC(=O)CCCCCC(=O)NC(Cc2ccccc2)CN(CC(N)=O)C1=O (stereo unspecified)          18 min

---

test: Oral bioavailability in Wistar rat at 10 mg/kg; assay type: ADME, organism-based; conditions: in vivo
readout.name: bioavailability (%)

> print(dat)
                                   compound  endpoint.value
1  N=C(N)NCCCC1NC(=O)CCCCCC(=O)NC(Cc2ccccc2)CN(CC(N)=O)C1=O (stereo unspecified)              10

Measured values drawn from ChEMBL document CHEMBL1250460 for this set.
